B1: scFv; the commonest letter at each place (parent)
chain 1: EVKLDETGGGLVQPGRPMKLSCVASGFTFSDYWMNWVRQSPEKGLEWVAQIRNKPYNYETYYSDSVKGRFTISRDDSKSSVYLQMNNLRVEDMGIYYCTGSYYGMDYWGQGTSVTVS
chain 2: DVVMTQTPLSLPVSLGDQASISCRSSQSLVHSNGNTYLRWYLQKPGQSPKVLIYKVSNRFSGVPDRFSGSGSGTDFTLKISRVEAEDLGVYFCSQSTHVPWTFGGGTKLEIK

Variants of: B1
MEASUREMENT_PROTOCOL: Kd (Tite-Seq)
CONDITION_SET: with fluorescein; format: scFv 4-4-20, heavy + light
pKd: −log10 of the molar value.
QUANTITY: pKd

Please fill in: pKd reported for chain 1 Y107M = 7.43

Entry chain 1 W33C M34G N35E — recorded pKd = ≤ 5.00

# pKd (variant: chain 1 W33F N35F ) is ≤ 5.00

Entry under test: chain 1 F29I W33D M34W . Its pKd was ≤ 5.00

Summary for this variant, chain 1 G100D D106W : pKd is ≤ 5.00

Value of pKd reported for the variant chain 1 Y32Q M34I is ≤ 5.00

So for chain 1 S101V G109P , the logged pKd turned out to be ≤ 5.00

Measured pKd of chain 1 T28V D31M : 8.35

chain 1 F29L W33A yielded pKd of ≤ 5.00

According to the records, this variant chain 1 Y102Q Y107H displays pKd of 5.70

Sure, the documented pKd for chain 1 S101W M105Q is ≤ 5.00

Record chain 1 W33S M34T , field pKd: ≤ 5.00

Record summary for chain 1 G100H D106C : reported pKd = ≤ 5.00

Value of measured pKd for the entry chain 1 Y102V W108A : 7.68

chain 1 G100Q G109E yielded pKd of ≤ 5.00

Value of pKd reported for the variant chain 1 N35T V37P is ≤ 5.00

Note to self: pKd recorded for chain 1 Y32I M34F was 5.25

Quick note, pKd for chain 1 M105I landed at 7.47

Entry chain 1 Y102K W108S , pKd reported as ≤ 5.00

The reported pKd of the variant chain 1 Y103M G109Y was ≤ 5.00

Short answer for chain 1 W36Y : pKd was 8.27

Measured pKd, chain 1 Y32W W33Q : ≤ 5.00

Entry chain 1 S101K D106V , pKd reported as ≤ 5.00

Entry under test: chain 1 S101L M105F . Its pKd was ≤ 5.00

Item: chain 1 G104H | pKd: ≤ 5.00

pKd reading for chain 1 G100L G109R : ≤ 5.00

chain 1 G104R M105R yielded pKd of ≤ 5.00

So, chain 1 T28G V37P ? Its pKd was 8.28

The measured pKd associated with chain 1 G100W S101P reads ≤ 5.00

Measured pKd, chain 1 Y32K : 5.78

Form: variant = chain 1 S30D N35R ; pKd = ≤ 5.00

For chain 1 M34G W36M the variant record lists pKd as ≤ 5.00

Record summary for chain 1 M105N G109A : reported pKd = ≤ 5.00

So for chain 1 N35F W36Q , the logged pKd turned out to be ≤ 5.00

Form: variant = chain 1 S30H W33C ; pKd = ≤ 5.00

For chain 1 M34Q the variant record lists pKd as 5.02

The reported pKd of the variant chain 1 D31F W33I was ≤ 5.00

Noted for chain 1 Y32H M34H : its pKd reads ≤ 5.00

Form field pKd, entry chain 1 Y102Q D106Y : ≤ 5.00

The reported pKd of the variant chain 1 D31R W33S M34P was ≤ 5.00

variant chain 1 F29S N35R , pKd observed: 7.36

Value of measured pKd for the entry chain 1 W108E : ≤ 5.00

Short answer for chain 1 W33N M34F : pKd was ≤ 5.00

Per the records, this variant ( chain 1 G100F Y107T ) has pKd equal to ≤ 5.00

Per the records, this variant ( chain 1 Y103D G104Y ) has pKd equal to ≤ 5.00

response.value for chain 1 G104I D106N G109F (field: pKd) = 6.46
